The reported numbers originate from patent US20230233569A1.

# IC50 values compiled below
Test system: AKT1/2/3 (Ser473) phosphorylation (mTORC2) in MDA-MB-468 cells
Assay notes: Cell based AlphaLISA assay, mTOR kinase cellular assay: inhibition of p-Akt (S473) in MDA-MB-468 cells
Condition label: Homo sapiens, read-out: pIC50 for Inhibition of mTORC1 and mTORC2 Substarte Phosphorylation p-AKT1/2/3-(S473) (converted)

CO[C@H]1C[C@@H]2CC[C@@H](C)[C@@](O)(O2)C(=O)C(=O)N2CCCC[C@H]2C(=O)O[C@H]([C@H](C)C[C@@H]2CC[C@@H](OC(=O)NCCOCCOCCOCCOCCOCCOCCC(=O)N3CCC(N4CCC(C(=O)N5CCc6cc(Cn7nc(-c8ccc9oc(N)nc9c8)c8c(N)ncnc87)ccc6C5)CC4)CC3)[C@H](OC)C2)CC(=O)[C@H](C)/C=C(\C)[C@@H](O)[C@@H](OC)C(=O)[C@H](C)C[C@H](C)/C=C/C=C/C=C/1C [Example 48] : 3.16 to 31.6 nM
CO[C@H]1C[C@@H]2CC[C@@H](C)[C@@](O)(O2)C(=O)C(=O)N2CCCC[C@H]2C(=O)O[C@H]([C@H](C)C[C@@H]2CC[C@@H](OC(=O)N3CCc4nc(N5CCN(c6ncc(C(=O)N7CCN(c8ncc(C(=O)N9CCc%10cc(Cn%11nc(-c%12ccc%13oc(N)nc%13c%12)c%12c(N)ncnc%12%11)ccc%10C9)cn8)CC7)cn6)CC5)ncc4C3)[C@H](OC)C2)CC(=O)[C@H](C)/C=C(\C)[C@@H](O)[C@@H](OC)C(=O)[C@H](C)C[C@H](C)/C=C/C=C/C=C/1C [Example 62] : > 1000 nM
CO[C@H]1C[C@@H]2CC[C@@H](C)[C@@](O)(O2)C(=O)C(=O)N2CCCC[C@H]2C(=O)O[C@H]([C@H](C)C[C@@H]2CC[C@@H](OC(=O)NCCOCCOCCOCCOCCOCCOCCOCCOCC(=O)N3CCc4cc(Cn5nc(-c6ccc7oc(N)nc7c6)c6c(N)ncnc65)ccc4C3)[C@H](OC)C2)CC(=O)[C@H](C)/C=C(\C)[C@@H](O)[C@@H](OC)C(=O)[C@H](C)C[C@H](C)/C=C/C=C/C=C/1C [Example 71] : 3.16 to 31.6 nM
CO[C@H]1C[C@@H]2CC[C@@H](C)[C@@](O)(O2)C(=O)C(=O)N2CCCC[C@H]2C(=O)O[C@H]([C@H](C)C[C@@H]2CC[C@@H](OC(=O)N3CCc4nc(N5CCN(CCOCCOCCOCCOCCOCCC(=O)N6CCc7cc(Cn8nc(-c9cnc%10[nH]ccc%10c9)c9c(N)ncnc98)ccc7C6)CC5)ncc4C3)[C@H](OC)C2)CC(=O)[C@H](C)/C=C(\C)[C@@H](O)[C@@H](OC)C(=O)[C@H](C)C[C@H](C)/C=C/C=C/C=C/1C [Example 38] : > 1000 nM
CO[C@H]1C[C@@H]2CC[C@@H](C)[C@@](O)(O2)C(=O)C(=O)N2CCCC[C@H]2C(=O)O[C@H]([C@H](C)C[C@@H]2CC[C@@H](OC(=O)NCc3cnc(N4CCN(C(=O)CCOCCN5CCN(c6ncc(C(=O)N7CCc8cc(Cn9nc(-c%10ccc%11oc(N)nc%11c%10)c%10c(N)ncnc%109)ccc8C7)cn6)CC5)[C@@H](C(=O)O)C4)nc3)[C@H](OC)C2)C[C@@H](OC)[C@H](C)/C=C(\C)[C@@H](O)[C@@H](OC)C(=O)[C@H](C)C[C@H](C)/C=C/C=C/C=C/1C [Example 131] : 3.16 to 31.6 nM
CO[C@H]1C[C@@H]2CC[C@@H](C)[C@@](O)(O2)C(=O)C(=O)N2CCCC[C@H]2C(=O)O[C@H]([C@H](C)C[C@@H]2CC[C@@H](OC(=O)NCc3cnc(N4CCN(c5ncc(C(=O)NCCOCCOCCOCCOCCC(=O)NCCCCn6nc(-c7cnc8[nH]ccc8c7)c7c(N)ncnc76)cn5)CC4)nc3)[C@H](OC)C2)CC(=O)[C@H](C)/C=C(\C)[C@@H](O)[C@@H](OC)C(=O)[C@H](C)C[C@H](C)/C=C/C=C/C=C/1C [Example 32] : 3.16 to 31.6 nM

Summary for this molecule, CO[C@H]1C[C@@H]2CC[C@@H](C)[C@@](O)(O2)C(=O)C(=O)N2CCCC[C@H]2C(=O)O[C@H]([C@H](C)C[C@@H]2CC[C@@H](OC(=O)NCc3cnc(N4CCN(C(=O)CCOCCN5CCN(c6ncc(C(=O)NCCS(=O)(=O)c7ccc(C(=O)N8CCOc9ccc(-c%10ccc(N)nc%10)cc9C8)c(C)c7F)cn6)CC5)CC4)nc3)[C@H](OC)C2)C[C@@H](OC)[C@H](C)/C=C(\C)[C@@H](O)[C@@H](OC)C(=O)[C@H](C)C[C@H](C)/C=C/C=C/C=C/1C [Example 120] : IC50 is 3.16 to 31.6 nM

Summary for this molecule, CO[C@H]1C[C@@H]2CC[C@@H](C)[C@@](O)(O2)C(=O)C(=O)N2CCCC[C@H]2C(=O)O[C@H]([C@H](C)C[C@@H]2CC[C@@H](OC(=O)NCCOCCOCCOCCOCCOCCOCCOCCOCCC(=O)NCc3ccc(Cn4nc(-c5ccc6oc(N)nc6c5)c5c(N)ncnc54)cc3)[C@H](OC)C2)CC(=O)[C@H](C)/C=C(\C)[C@@H](O)[C@@H](OC)C(=O)[C@H](C)C[C@H](C)/C=C/C=C/C=C/1C [Example 79] : IC50 is 31.6 to 1000 nM

Summary for this molecule, CO[C@H]1C[C@@H]2CC[C@@H](C)[C@@](O)(O2)C(=O)C(=O)N2CCCC[C@H]2C(=O)O[C@H]([C@H](C)C[C@@H]2CC[C@@H](OC(=O)NCc3cnc(N4CCN(c5ncc(C(=O)N6CCN(c7ncc(C(=O)N8CCc9cc(Cn%10nc(-c%11cnc%12[nH]ccc%12c%11)c%11c(N)ncnc%11%10)ccc9C8)cn7)CC6)cn5)CC4)nc3)[C@H](OC)C2)CC(=O)[C@H](C)/C=C(\C)[C@@H](O)[C@@H](OC)C(=O)[C@H](C)C[C@H](C)/C=C/C=C/C=C/1C [Example 61] : IC50 is > 1000 nM

* * *

Tested target: KRAS G12S (Homo sapiens, UniProt P01116+P62937, G12S)
Sequence (P01116 1-169 isoform P01116-2 G12S limits assumed): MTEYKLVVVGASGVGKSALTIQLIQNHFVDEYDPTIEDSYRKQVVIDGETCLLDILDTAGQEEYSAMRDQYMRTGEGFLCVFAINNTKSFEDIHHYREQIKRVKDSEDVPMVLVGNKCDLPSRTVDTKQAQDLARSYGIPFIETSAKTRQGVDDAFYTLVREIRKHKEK
Sequence (P62937 whole entry): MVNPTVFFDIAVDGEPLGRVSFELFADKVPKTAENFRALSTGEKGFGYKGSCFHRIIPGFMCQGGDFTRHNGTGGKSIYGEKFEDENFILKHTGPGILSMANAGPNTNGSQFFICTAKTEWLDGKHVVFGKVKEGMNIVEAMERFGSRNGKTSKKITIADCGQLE
Assay notes: Disruption of BRAF RBD interaction with Ras (FRET / MOA assay, with Cyclophilin A)
Assay type: biochemical
Condition label: KRAS G12S FRET data, IC50
# IC50 values compiled below

CCn1c(-c2cnccc2COC)c2c3cc(ccc31)-c1cc(O)cc(c1)C[C@H](NC(=O)[C@H](C(C)C)N(C)C(=O)[C@H]1CCN(CCO)C1)C(=O)N1CCC[C@H](N1)C(=O)OCC(C)(C)C2 : 100 to 1000 nM
CCn1c(-c2cnccc2COC)c2c3cc(ccc31)-c1cc(O)cc(c1)C[C@H](NC(=O)[C@H](C(C)C)N(C)C(=O)[C@H]1CCN(C)C1)C(=O)N1CCC[C@H](N1)C(=O)OCC(C)(C)C2 : 100 to 1000 nM

Now consider a different compound.
Summary for this compound, CCn1c(-c2cnccc2COC)c2c3cc(ccc31)-c1cc(O)cc(c1)C[C@H](NC(=O)[C@H](C(C)C)N(C)C(=O)OC1CCOC1)C(=O)N1CCC[C@H](N1)C(=O)OCC(C)(C)C2 (stereo partly drawn) : IC50 is 1000 to 10000 nM

* * *

Tested target: KRAS G12V (Homo sapiens, UniProt P01116+P62937, G12V)
Sequence (P01116 1-169 isoform P01116-2 G12V limits assumed): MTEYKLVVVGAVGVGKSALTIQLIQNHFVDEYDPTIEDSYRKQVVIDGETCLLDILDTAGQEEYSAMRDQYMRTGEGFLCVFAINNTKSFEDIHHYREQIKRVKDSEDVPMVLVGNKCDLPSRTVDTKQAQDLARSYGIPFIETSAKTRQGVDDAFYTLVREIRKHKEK
Sequence (P62937 whole entry): as the sequence (P62937 whole entry) above
Assay notes: Disruption of BRAF RBD interaction with Ras (FRET / MOA assay, with Cyclophilin A)
Assay type: biochemical
Condition label: KRAS G12V; read-out: KRAS G12V FRET data IC50
pIC50: −log10 of the molar value.
Assay metric: pIC50

Guide cases for pIC50, answers given:
CCn1c(-c2cccnc2[C@H](C)OC)c2c3cc(ccc31)-c1cc(O)cc(c1)C[C@H](NS(=O)(=O)c1cnc[nH]1)C(=O)N1CCC[C@H](N1)C(=O)OCC(C)(C)C2 (racemic) : < 5.00
CCn1c(-c2cccnc2[C@H](C)OC)c2c3cc(ccc31)-c1cc(O)cc(c1)C[C@H](NC(=O)C1CCCC1C(F)F)C(=O)N1CCC[C@H](N1)C(=O)OCC(C)(C)C2 (stereo partly shown) : 6.00 to 7.00
CCn1c(-c2cccnc2[C@H](C)OC)c2c3cc(ccc31)-c1cc(O)cc(c1)C[C@H](NC(=O)[C@H](C(C)C)N(C)C(=O)[C@H]1CCN(CCO)C1)C(=O)N1CCC[C@H](N1)C(=O)OCC(C)(C)C2 : 5.00 to 6.00
CCn1c(-c2cccnc2[C@H](C)OC)c2c3cc(ccc31)-c1cc(O)cc(c1)C[C@H](NC(=O)[C@H](C(C)C)N(C)C(=O)O[C@H]1CCOC1)C(=O)N1CCC[C@H](N1)C(=O)OCC(C)(C)C2 : 6.00 to 7.00
CCn1c(-c2cccnc2[C@H](C)OC)c2c3cc(ccc31)-c1cc(O)cc(c1)C[C@H](NC(=O)[C@H](C(C)C)N(C)C(=O)[C@H]1CCN(C(=O)C(C)(C)N(C)C)C1)C(=O)N1CCC[C@H](N1)C(=O)OCC(C)(C)C2 (atropisomer, axis not shown) : 7.00 to 8.00

Tested system KRAS G12V (Homo sapiens, UniProt P01116+P62937, G12V); pIC50 recorded for CCn1c(-c2cccnc2[C@H](C)OC)c2c3cc(ccc31)-c1cc(O)cc(c1)C[C@H](NC(=O)[C@H](C(C)C)N(C)C(=O)[C@H]1CCN(C(=O)OC3COC3)C1)C(=O)N1CCC[C@H](N1)C(=O)OCC(C)(C)C2 was 7.00 to 8.00

Tested system KRAS G12V (Homo sapiens, UniProt P01116+P62937, G12V); pIC50 recorded for CCn1c(-c2cccnc2[C@H](C)OC)c2c3cc(ccc31)-c1csc(n1)C[C@H](NC(=O)[C@H](C(C)C)N1CCN(C)C1=O)C(=O)N1CCC[C@H](N1)C(=O)OCC(C)(C)C2 was 5.00 to 6.00

Tested system KRAS G12V (Homo sapiens, UniProt P01116+P62937, G12V); pIC50 recorded for C=CC(=O)N1CC[C@H](C(=O)N(C)[C@H](C(=O)N[C@H]2Cc3cc(O)cc(c3)-c3ccc4c(c3)c(c(-c3ccc5cc(CN(C)C)n(C)c5c3)n4CC)CC(C)(C)COC(=O)[C@@H]3CCCN(N3)C2=O)C(C)C)C1 was 5.00 to 6.00

Tested system KRAS G12V (Homo sapiens, UniProt P01116+P62937, G12V); pIC50 recorded for C=CC(=O)N1CC[C@H](C(=O)N(C)[C@H](C(=O)N[C@H]2Cc3nc(cs3)-c3ccc4c(c3)c(c(-c3cccnc3[C@H](C)OC)n4CC)CC(C)(C)CN(C)C[C@@H]3CCCN(N3)C2=O)C(C)C)C1 was < 5.00
